- target.desc: UniProt P80209
- assay.procedure: Inhibition of cathepsin D.
pKi: −log10 of the molar value. Square brackets hold non-standard residues; d marks the D form. Peptide text beside a SMILES is read from it. * marks the point of attachment. Sta = CC(C)C[C@H](N)[C@@H](O)CC(=O)O; Isovaleryl = CC(C)CC(=O)*; NHIsopentyl = CC(C)CCN*; Boc = CC(C)(C)OC(=O)*
measured.property: pKi

1. COC(=O)[C@H](CC(C)C)NC(=O)[C@@H](NC(=O)C[C@H](O)[C@H](CC(C)C)NC(=O)[C@H](C)NC(=O)[C@H](C)NC(=O)[C@H](Cc1ccccc1)NC(=O)OC(C)(C)C)C(C)C (Boc-FAA[Sta]VL-OMe) ... 7.92
2. CC(C)CCNC(=O)[C@H](C)NC(=O)C[C@@H](O)[C@@H](CC(C)C)NC(=O)[C@@H](NC(=O)[C@@H](NC(=O)OC(C)(C)C)C(C)C)C(C)C ... 6.35
3. CCOC(=O)C[C@H](O)[C@H](CC(C)C)NC(=O)[C@@H](NC(=O)[C@@H](NC(=O)CC(C)C)C(C)C)C(C)C (Isovaleryl-Val-Val-[Sta]-OEt) ... 6.74
4. CC(C)CCNC(=O)[C@H](C)NC(=O)C[C@H](O)[C@H](CC(C)C)NC(=O)[C@@H](NC(=O)[C@@H](NC(=O)CC(C)C)C(C)C)C(C)C ... 8.43
5. COC(=O)[C@H](CC(C)C)NC(=O)[C@@H](NC(=O)[C@H](Cc1ccccc1)NC(=O)C[C@H](O)[C@H](CC(C)C)NC(=O)[C@H](C)NC(=O)[C@H](C)NC(=O)[C@H](Cc1ccccc1)NC(=O)OC(C)(C)C)C(C)C (Boc-FAA[Sta]FVL-OMe) ... 7.22
6. CC(C)CCNC(=O)[C@H](C)NC(=O)C[C@H](O)[C@H](CC(C)C)NC(=O)[C@H](C)NC(=O)[C@H](C)NC(=O)[C@H](Cc1ccccc1)NC(=O)OC(C)(C)C (Boc-FAA[Sta]A-NHIsopentyl) ... 7.00

====

Overview of recorded Ki for various molecules
- target.desc: Pepsin A (Sus scrofa)
- Sequence (P00791 whole entry): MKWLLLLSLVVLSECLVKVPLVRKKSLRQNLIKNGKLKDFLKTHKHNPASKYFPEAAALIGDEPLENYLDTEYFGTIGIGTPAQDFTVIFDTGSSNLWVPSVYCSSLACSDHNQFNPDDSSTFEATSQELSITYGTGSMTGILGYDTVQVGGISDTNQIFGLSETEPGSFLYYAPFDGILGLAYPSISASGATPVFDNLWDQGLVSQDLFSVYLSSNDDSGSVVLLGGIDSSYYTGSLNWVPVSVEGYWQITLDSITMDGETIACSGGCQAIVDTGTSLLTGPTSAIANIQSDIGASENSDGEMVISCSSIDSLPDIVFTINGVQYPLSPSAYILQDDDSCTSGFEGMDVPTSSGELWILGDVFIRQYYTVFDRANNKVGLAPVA
Square brackets hold non-standard residues; d marks the D form. Peptide text beside a SMILES is read from it. * marks the point of attachment. Sta = CC(C)C[C@H](N)[C@@H](O)CC(=O)O; NHIsopentyl = CC(C)CCN*; Boc = CC(C)(C)OC(=O)*
measured.property: Ki (nM)

1) COC(=O)[C@H](CC(C)C)NC(=O)[C@@H](NC(=O)[C@H](Cc1ccccc1)NC(=O)C[C@H](O)[C@H](CC(C)C)NC(=O)[C@H](C)NC(=O)[C@H](CC(C)C)NC(=O)[C@H](Cc1ccccc1)NC(=O)OC(C)(C)C)C(C)C (Boc-FLA[Sta]FVL-OMe) ... 0.64
2) CC(C)CCNC(=O)[C@H](C)NC(=O)C[C@H](O)[C@H](CC(C)C)NC(=O)[C@H](C)NC(=O)[C@H](C)NC(=O)[C@H](Cc1ccccc1)NC(=O)OC(C)(C)C (Boc-FAA[Sta]A-NHIsopentyl) ... 3.3
3) COC(=O)[C@H](CC(C)C)NC(=O)[C@@H](NC(=O)C[C@H](O)[C@H](CC(C)C)NC(=O)[C@H](C)NC(=O)[C@H](C)NC(=O)[C@H](Cc1ccccc1)NC(=O)OC(C)(C)C)C(C)C (Boc-FAA[Sta]VL-OMe) ... 2.8
4) COC(=O)[C@H](CC(C)C)NC(=O)[C@@H](NC(=O)[C@H](Cc1ccccc1)NC(=O)C[C@H](O)[C@H](CC(C)C)NC(=O)[C@H](C)NC(=O)[C@H](C)NC(=O)[C@H](Cc1ccccc1)NC(=O)OC(C)(C)C)C(C)C (Boc-FAA[Sta]FVL-OMe) ... 1.7
5) COC(=O)[C@H](CC(C)C)NC(=O)[C@@H](NC(=O)[C@H](Cc1ccccc1)NC(=O)C[C@H](O)[C@H](CC(C)C)NC(=O)[C@H](C)NC(=O)[C@H](Cc1ccccc1)NC(=O)[C@H](Cc1ccccc1)NC(=O)OC(C)(C)C)C(C)C (Boc-FFA[Sta]FVL-OMe) ... 24

====

Sequence of the target: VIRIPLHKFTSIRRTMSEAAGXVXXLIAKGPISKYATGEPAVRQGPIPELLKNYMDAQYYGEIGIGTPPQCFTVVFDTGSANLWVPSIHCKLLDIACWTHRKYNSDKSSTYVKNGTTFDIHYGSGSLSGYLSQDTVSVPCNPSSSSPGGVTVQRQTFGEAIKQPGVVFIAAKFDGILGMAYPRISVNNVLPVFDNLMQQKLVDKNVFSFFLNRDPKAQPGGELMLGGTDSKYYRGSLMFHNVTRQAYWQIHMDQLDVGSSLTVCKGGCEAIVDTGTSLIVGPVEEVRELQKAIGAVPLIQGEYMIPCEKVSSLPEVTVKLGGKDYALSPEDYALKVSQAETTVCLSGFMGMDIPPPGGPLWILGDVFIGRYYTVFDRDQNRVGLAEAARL
pKi: −log10 of the molar value. Square brackets hold non-standard residues; d marks the D form. Peptide text beside a SMILES is read from it. * marks the point of attachment. Sta = CC(C)C[C@H](N)[C@@H](O)CC(=O)O; Isovaleryl = CC(C)CC(=O)*; Boc = CC(C)(C)OC(=O)*
Decision: pKi compared against 7; not below it gives Criterion met, below it gives Criterion not met.

1. CC(C)CCNC(=O)[C@H](C)NC(=O)C[C@H](O)[C@@H](CC(C)C)NC(=O)[C@@H](NC(=O)[C@@H](NC(=O)CC(C)C)C(C)C)C(C)C ... Criterion not met
2. CC(C)CCNC(=O)[C@H](C)NC(=O)C[C@@H](O)[C@@H](CC(C)C)NC(=O)[C@@H](NC(=O)CC(C)C)C(C)C ... Criterion not met
3. COC(=O)[C@H](CC(C)C)NC(=O)[C@H](C)NC(=O)C[C@H](O)[C@H](CC(C)C)NC(=O)[C@@H](NC(=O)CC(C)C)C(C)C (Isovaleryl-V[Sta]AL-OMe) ... Criterion met
4. COC(=O)[C@H](CC(C)C)NC(=O)[C@@H](NC(=O)[C@H](Cc1ccccc1)NC(=O)C[C@H](O)[C@H](CC(C)C)NC(=O)[C@H](C)NC(=O)[C@H](Cc1ccccc1)NC(=O)[C@H](Cc1ccccc1)NC(=O)OC(C)(C)C)C(C)C (Boc-FFA[Sta]FVL-OMe) ... Criterion met
5. CCC(C)C(=O)N[C@H](C(=O)N[C@@H](CC(C)C)[C@@H](O)CC(=O)N[C@@H](C)C(=O)NCCC(C)C)C(C)C (some centres not stated) ... Criterion not met
6. CC(C)CCNC(=O)[C@H](C)NC(=O)C[C@H](O)[C@@H](Cc1ccccc1)NC(=O)[C@@H](NC(=O)OC(C)(C)C)C(C)C ... Criterion not met
7. COC(=O)[C@H](Cc1ccccc1)NC(=O)[C@H](C)NC(=O)C[C@H](O)[C@H](CC(C)C)NC(=O)[C@@H](NC(=O)CC(C)C)C(C)C (Isovaleryl-V[Sta]AF-OMe) ... Criterion met
8. CC(C)CCNC(=O)[C@H](C)NC(=O)C[C@H](O)[C@H](CC(C)C)NC(=O)[C@@H](NC(=O)CC(C)C)C(C)C ... Criterion not met
9. COC(=O)[C@H](CC(C)C)NC(=O)[C@@H](NC(=O)[C@H](Cc1ccccc1)NC(=O)C[C@H](O)[C@H](CC(C)C)NC(=O)[C@H](C)NC(=O)[C@H](CC(C)C)NC(=O)[C@H](Cc1ccccc1)NC(=O)OC(C)(C)C)C(C)C (Boc-FLA[Sta]FVL-OMe) ... Criterion met
10. CC(C)CCNC(=O)[C@H](C)NC(=O)C[C@H](O)[C@H](CC(C)C)NC(=O)[C@@H](NC(=O)OC(C)(C)C)C(C)C ... Criterion not met
